Hey, just so you know, these numbers are from patent US20260242419A1.

Biological target: Recombinant human IL-1β (BioLegend 579404) (human, UniProt P01584 117-269)
Experiment: cell-based or functional assay
Non-standard residues stand in square brackets, D forms with d. Trp(βS-Me,4-F) = C[C@@H](c1c[nH]c2cccc(F)c12)[C@H](N)C(=O)O; Bip(4'-COOH) = N[C@@H](Cc1ccc(-c2ccc(C(=O)O)cc2)cc1)C(=O)O; Phe(4-(4-pyridyl)) = N[C@@H](Cc1ccc(-c2ccncc2)cc1)C(=O)O; dPro(4R-Bzl(4-F)) = O=C(O)[C@H]1C[C@@H](Cc2ccc(F)cc2)CN1; dPro(3S-(4-F-Bn)) = O=C(O)[C@@H]1NCC[C@@H]1Cc1ccc(F)cc1; Ala(pyrimidin-5-yl) = N[C@@H](Cc1cncnc1)C(=O)O; Phe(4-COOH) = N[C@@H](Cc1ccc(C(=O)O)cc1)C(=O)O; Lys(Me3) = C[N+](C)(C)CCCC[C@H](N)C(=O)O; Pro(cis-4-F) = O=C(O)[C@@H]1C[C@H](F)CN1; d(αMeD) = C[C@@](N)(CC(=O)O)C(=O)O; 4Pal = N[C@@H](Cc1ccncc1)C(=O)O; Dab = NCC[C@H](N)C(=O)O; Aib = CC(C)(N)C(=O)O
measurement_name: MRC5 IC50 (nM)
Please respond with the number in nM and leave the unit unwritten.

cyclo([Phe(4-(4-pyridyl))][4Pal][Phe(4-COOH)]G[Pro(cis-4-F)][Trp(βS-Me,4-F)][Aib]SW[d(αMeD)][Ala(pyrimidin-5-yl)]Q[Dab]G[dPro(3S-(4-F-Bn))]) (ring closure inferred) [SEQ ID NO 283]
0.016

Next item in the queue.
Prompt: Item under review: cyclo([Bip(4'-COOH)][4Pal][Phe(4-COOH)]G[Pro(cis-4-F)][Trp(βS-Me,4-F)][Aib]SW[Aib][Lys(Me3)]Q[Dab]G[dPro(4R-Bzl(4-F))]) (ring closure inferred; not fully specified (N-terminus); printed as cyclic, Bip4CO2H-4Pal-Phe4COOH-G-Proc4F-sbMeW4F-Aib-S-W-Aib-LysMe3-Q-Dab-G-dProc4Bn4F) [SEQ ID NO 298] . Reported MRC5 IC50?
Completion: 0.015
